test: yeast display, Sf9 membrane polyspecificity reagent, FACS + sequencing; frameworks hold sequencing errors
OBSERVATION_TYPE: polyreactivity (PSR sort gate)

>  <MONOMER_SEQUENCE>
QVQLVESGGGLVQAGGSLRLSCAASGRTFPSYAMGWYRQAPGKERELVAAITTSGGSTYYADSVKGRFTISRDNAKNTVYLQMNSLKPEDTAVYYCAAAKPYSGSQYYYWGQGTQVTVSS

>  <polyreactivity (PSR sort gate)>
high polyreactivity

$$$$
>  <MONOMER_SEQUENCE>
QVQLVESGGGLVQAGGSLRLSCAASGSTFPLYAMGWYRQAPGKERELVATITGSGGSTNYADSVKGRFTISRDNAKNTVYLQMNSLKPEDTAVYYCNARRRRLVSYYYWGQGTQVTVSS

>  <polyreactivity (PSR sort gate)>
high polyreactivity

$$$$
>  <MONOMER_SEQUENCE>
QVQLVESAARLVQAGASLPLSCPASGRIFYTNAMGCYRQAPGKERELVAVMSWGGDTTYYADSVKGRFTISRDNATNTVYLQMNSLKPEDSAVYYCNAYSGPTYEIYDSWGLGTQVTVSS

>  <polyreactivity (PSR sort gate)>
low polyreactivity

$$$$
>  <MONOMER_SEQUENCE>
QVQLVESGGGLVQAGGSLRLSCAASGSTFTRYAMGWYRQAPGKERELVAAITRSGGGTYYADSVKGRFTSSRDNAKNTVYLQLNSLKPEDTAVYYCAKDIVFYGSPGYGYWGQGTQVTVSS

>  <polyreactivity (PSR sort gate)>
high polyreactivity

$$$$

Could you report polyreactivity (PSR sort gate) for every entry in the following list?
1. HVQLVESGGGLVQAGGSLRLSCAASGSIFGNYVMGWYRQAPGKERELVAAISWSGGTNYADSVKGRFTISRDNAKNTVYLQMKSLKPEDTAVYYCAALSVWSYYTYYYWGQGTQVTVSS
2. QVQLQESGGRMVQAGGSLRLSCAASGYISWADYKGWYRQAPGKERELVAGIGYGSTTYYADSVKGRFTISRDNAKNTSYLQMNSLKPEDTAVYYCAVGWYRDSAYKYWGQGTQVTVSS
3. QVQLVESGGGLVQAGGSLRLSCAASGSIISNYVMGWYRPAPGKERELVAAITRRGGRTYYADSVKGRFTISRDNAKNTVYLQMNSLKPEDTAVYYCAAERYPEAGSPYGTAEMDYWGQGTLVTVSS
4. QVQLVESGGGLVQAGGSLRLSCAASGITFGPYAIGWYRQAPGKERELVAAISAGGGSTYYADSVKGRFTISRDNAKNSVYLQMNSLKPEDTAVYYCAAYLLHHYGGPEYYYWGQGTQVTVSS
5. QVHLVESGGGLVQAGGSLRLSCAASGRIFIYYAMGWYRQAPGKERELVAAISWCGGRTYYADSVKGRFTISRDNAKNTVYLQMNSLKPEDTAVYYCAAGVYTGQHEYDYWGQGTQVTVSS
6. QVQLVESGGGLVQAGGSLRLSCAASGSIFGGYSMGWYRQAPGKEMELVARISSGGSTYYADSVKGRFTISRDNAKNTVYLQMNSLKQEDTAVYYCNAKTYTWWGLYEYWGQGTQVTVSS
7. QVQLVESGGGLVQAGGSLRLSCAASGFIFTVYAMGWSRQAPGKERELVAAISRGGGSTSYADSVKGRFTISRDNAKNTVYLQMNSLKPEDTAVYYCNAKYKYSRGYDYWGQGTQVTVSS

Response line:
1. high polyreactivity
2. low polyreactivity
3. high polyreactivity
4. high polyreactivity
5. low polyreactivity
6. high polyreactivity
7. high polyreactivity
